Biological target: YANK3 (Homo sapiens)
Construct: expressed in transfected cells; host or cells: MCF7 cells, Lipofectamine transfection, anti-HA immunoprecipitation
Sequence (Q86UX6 whole entry): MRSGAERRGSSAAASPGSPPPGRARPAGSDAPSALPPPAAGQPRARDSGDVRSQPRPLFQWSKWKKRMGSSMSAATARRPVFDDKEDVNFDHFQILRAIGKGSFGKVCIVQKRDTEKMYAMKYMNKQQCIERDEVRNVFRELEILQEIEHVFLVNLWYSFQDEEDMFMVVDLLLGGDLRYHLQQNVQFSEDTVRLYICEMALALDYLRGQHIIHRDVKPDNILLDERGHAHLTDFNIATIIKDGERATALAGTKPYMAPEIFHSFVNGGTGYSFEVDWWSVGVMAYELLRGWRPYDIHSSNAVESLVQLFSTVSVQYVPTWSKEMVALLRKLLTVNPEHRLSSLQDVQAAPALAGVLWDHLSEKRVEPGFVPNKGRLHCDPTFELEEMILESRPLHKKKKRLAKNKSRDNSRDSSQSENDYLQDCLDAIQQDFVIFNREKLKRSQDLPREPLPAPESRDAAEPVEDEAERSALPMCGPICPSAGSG
Assay: In vitro kinase assay: inhibition of YANK3 phosphorylation (IP kinase, [γ-32P]ATP, autoradiography)
Type: biochemical
Set-up: dose or concentration left out as unconfirmed
Conditions: MCF7 cells treated with each compound at 37° C. for 1 h; anti-HA IP, kinase reaction 30° C. 30 min
reported_property: Inhibition, % (inhibitions (%) of YANK3 phosphorylation)
// return numeric value only (unit: %, not printed)

Oc1ccc(Br)cc1-c1cc2cc(F)ccc2[nH]1 [Formula 7, 4-Bromo-2-(5-fluoro-1H-indol-2-yl)phenol]	74
Oc1ccc(-c2ccc(Cl)cc2)cc1-c1cc2cc(Cl)ccc2[nH]1 [Formula 16]	125
N=C(N)c1ccc2[nH]c(-c3cc(-c4cccs4)ccc3O)cc2c1 [Compound 33]	30
N#Cc1ccc2[nH]c(-c3cc(Br)ccc3O)cc2c1 [Formula 9]	144
Oc1ccc(-c2ccc(Cl)cc2)cc1-c1cc2cc(F)ccc2[nH]1 [Formula 13]	93
N=C(N)c1ccc2[nH]c(-c3cc(-c4ccc(Cl)cc4)ccc3O)cc2c1 [Compound 32]	65

Query (molecule): COc1ccc(-c2ccc(O)c(-c3cc4ccccc4[nH]3)c2)cc1 [Formula 11] ; field requested: Inhibition, % (inhibitions (%) of YANK3 phosphorylation)
163
